- target under test: Amine oxidase [flavin-containing] B (Homo sapiens)
- Sequence (P27338 whole entry): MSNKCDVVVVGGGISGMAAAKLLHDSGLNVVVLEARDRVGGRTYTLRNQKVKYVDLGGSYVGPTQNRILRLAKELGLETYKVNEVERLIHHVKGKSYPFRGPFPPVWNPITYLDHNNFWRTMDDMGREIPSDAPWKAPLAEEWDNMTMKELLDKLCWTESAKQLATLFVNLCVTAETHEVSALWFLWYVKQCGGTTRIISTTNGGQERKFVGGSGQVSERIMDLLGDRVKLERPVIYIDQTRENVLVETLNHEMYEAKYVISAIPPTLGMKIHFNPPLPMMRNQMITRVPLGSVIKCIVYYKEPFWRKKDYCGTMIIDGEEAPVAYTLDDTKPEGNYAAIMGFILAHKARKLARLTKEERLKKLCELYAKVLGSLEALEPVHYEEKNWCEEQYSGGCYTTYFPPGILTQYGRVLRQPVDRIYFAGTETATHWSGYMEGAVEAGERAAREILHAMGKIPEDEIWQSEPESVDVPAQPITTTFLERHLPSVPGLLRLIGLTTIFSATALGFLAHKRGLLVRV
- experimental details: Reversible inhibition of human MAO-B assessed as residual enzyme activity at 4 fold IC50 incubated for 15 mins and measured before dialysis relative to control
Label yes when Activity is strictly below 80%; at or above that, label no.

{"molecule": "O=C(NCCN1CCOCC1)c1ccc(Cl)cc1 [MOCLOBEMIDE]", "assigned class": "no"}
{"molecule": "NCCNC(=O)c1ccc(Cl)cn1 [LAZABEMIDE]", "assigned class": "no"}
{"molecule": "COc1ccc(C2=NN(C(=O)Cn3c(=O)oc4ccc(C)cc43)C(c3cccc(OC)c3OC)C2)cc1 (stereo not given)", "assigned class": "yes"}
{"molecule": "COc1ccccc1/C=C/C(=N\\NC(=O)Cn1c(=O)oc2ccc(Cl)cc21)c1ccccc1", "assigned class": "yes"}
